Entry source: PubChem BioAssay AID1259407

# Tested on: CCRIS mutagenicity, Ames/micronucleus/aberration tests
# measurement_description: CCRIS mutagenicity studies
# condition_details: Test System: UDS RODENT HEPATOCYTES; Strain/Indicator: THY INCORP (NON-S-PHASE); Metabolic Activation: NONE; Method: AUTORADIOGRAPHY
Active and inactive are the calls of the source. How the calls were made is not given here.
Labels: active, inactive

1) Cc1ccc2ncccc2c1 = inactive
2) Fc1ccc2cccnc2c1 = active
3) CC(=O)Nc1ccc2c(c1)Cc1ccccc1-2 = active
4) Cc1ccc(N)c(C)c1 = active
5) COC(=O)c1ccccc1N = inactive
6) O=C1c2ccccc2C(=O)c2c1ccc(O)c2O = active
7) CCOc1ccc(N)cc1 = inactive
8) C=CC(=O)O = inactive
9) CC(=O)Nc1ccc(N)cc1 = inactive
10) CN(C)c1ccc(N=Nc2ccc3ncsc3c2)cc1 = active
11) Cc1ccc(N)c([N+](=O)[O-])c1 = inactive

###

# System: CCRIS mutagenicity, Ames/micronucleus/aberration tests
# measurement_description: CCRIS mutagenicity studies
# condition_details: Test System: AMES SALMONELLA TYPHIMURIUM; Strain/Indicator: TA98; Metabolic Activation: S-9; Method: STANDARD PLATE
Active and inactive are the calls of the source. The rule behind the calls is not given here.
Labels: Yes = active, No = inactive

1. CC(C)(C)c1cc(-c2ccccc2)ccc1[N+](=O)[O-] = No
2. Cc1cc(C(C)(C)C)c(O)c(C(C)(C)C)c1 = No
3. CS(=O)(=O)OCCCNCCCOS(C)(=O)=O = No
4. CCSCCSP(=O)(OC)OC = No
5. C[C@H]1CC[C@@H]2[C@@H](C)[C@H]3[C@H](C[C@H]4[C@@H]5CC=C6C[C@@H](O[C@@H]7O[C@H](CO)[C@@H](O[C@@H]8O[C@@H](C)[C@H](O)[C@@H](O)[C@H]8O)[C@H](O)[C@H]7O[C@@H]7O[C@@H](C)[C@H](O)[C@@H](O)[C@H]7O)CC[C@]6(C)[C@H]5CC[C@]34C)N2C1 = No
6. O=[N+]([O-])c1ccc(Oc2ccc(Cl)cc2Cl)cc1 = No
7. CC(C)Nc1ccc(Nc2ccccc2)cc1 = No
8. Nc1ccc(/C=C/c2ccc(N)cc2)cc1 = Yes
9. Oc1ccccc1-c1nc2ccccc2o1 = No
10. O=[N+]([O-])c1ccc(/C=C/c2ccc(Cl)cc2)cc1 = Yes
11. COc1cc(-c2ccc(N)c(OC)c2)ccc1N = Yes
12. Cc1ccc2nsc(N)c2c1 = Yes
13. c1ccc(CSSCc2ccccc2)cc1 = No
14. CC1=C(C(=O)Nc2ccccc2)SCCO1 = No
15. c1ccc2sncc2c1 = No
16. c1ccc2sc(SNC3CCCCC3)nc2c1 = No
17. CCc1cccc(CC)c1N(COC)C(=O)CCl = No
18. CC[C@]1(O)C[C@@H]2CN(CCc3c([nH]c4ccccc34)[C@@](C(=O)OC)(c3cc4c(cc3OC)N(C)[C@H]3[C@@](O)(C(=O)OC)[C@H](OC(C)=O)[C@]5(CC)C=CCN6CC[C@]43[C@@H]65)C2)C1 = No

###

# Test system: CCRIS mutagenicity, Ames/micronucleus/aberration tests
# measurement_description: CCRIS mutagenicity studies
# condition_details: Test System: AMES SALMONELLA TYPHIMURIUM; Strain/Indicator: TA1978; Metabolic Activation: RAT, LIVER, S-9, TETRACHLOROBIPHENYL; Method: PREINCUBATION
Active and inactive are the calls of the source. The rule behind the calls is not given here.
Labels: Y for active, N for inactive

1) Nc1cccc2nc3ccccc3c(N)c12 = Y
2) Nc1ccc2cc3ccc(N)cc3nc2c1 = Y
3) Nc1ccc2nc3ccccc3cc2c1 = Y
4) C[n+]1c2cc(N)ccc2cc2ccc(N)cc21 = N

###

# Tested on: CCRIS mutagenicity, Ames/micronucleus/aberration tests
# measurement_description: CCRIS mutagenicity studies
# condition_details: Test System: AMES SALMONELLA TYPHIMURIUM; Strain/Indicator: TA98; Metabolic Activation: RAT, LIVER, S-9, KANECHLOR 500; Method: PREINCUBATION
Calls of active or inactive are those of the source. How the calls were made is not given here.
Labels: active, inactive

1. O=[N+]([O-])c1ccc(Cl)c([N+](=O)[O-])c1 = active
2. O=[N+]([O-])c1ccc(F)c([N+](=O)[O-])c1 = active
3. O=C(O)c1ccc([N+](=O)[O-])cc1 = inactive
4. Cc1ccc(N)c([N+](=O)[O-])c1 = inactive
5. CC(=O)Nc1ccnc2ccccc12 = inactive
6. O=[N+]([O-])c1cc(CCl)cc([N+](=O)[O-])c1 = active
7. CC[N+](=O)[O-] = inactive
8. O=[N+]([O-])c1ccc(Cl)cc1Cl = inactive
9. Cc1ccc(Cl)cc1[N+](=O)[O-] = inactive
10. OC[C@@H](O)CCl = inactive
11. Nc1ccc(-c2ccc([N+](=O)[O-])cc2N)c([N+](=O)[O-])c1 = active
12. Cc1c(O)cc([N+](=O)[O-])cc1[N+](=O)[O-] = inactive
13. CC(=O)Nc1ccc2ccccc2n1 = inactive

###

# Test system: CCRIS mutagenicity, Ames/micronucleus/aberration tests
# measurement_description: CCRIS mutagenicity studies
# condition_details: Test System: AMES SALMONELLA TYPHIMURIUM; Strain/Indicator: TA98; Metabolic Activation: NONE; Method: STANDARD PLATE
Active and inactive are the calls of the source. No rule for the calls is given here.
Labels: active, inactive

1) C1CCC2OCCOCCOC3CCCCC3OCCOCCOC2C1 (centres undefined) = inactive
2) CC(C)CCC[C@@H](C)[C@H]1CC[C@H]2[C@@H]3C[C@@H](O)[C@@]4(O)C[C@@H](O)CC[C@]4(C)[C@H]3CC[C@]12C = active
3) O=[N+]([O-])c1cc(C(F)(F)F)cc([N+](=O)[O-])c1Cl = inactive
4) COc1cccc2c1C(=O)c1c(O)c3c(c(O)c1C2=O)C[C@@](O)(C(=O)CO)C[C@@H]3O[C@H]1C[C@H](N)[C@H](OC)[C@H](C)O1 = active

###

# Test system: CCRIS mutagenicity, Ames/micronucleus/aberration tests
# measurement_description: CCRIS mutagenicity studies
# condition_details: Test System: AMES SALMONELLA TYPHIMURIUM; Strain/Indicator: TA1535; Metabolic Activation: NONE; Method: PREINCUBATION
Calls of active or inactive are those of the source. The rule behind the calls is not given here.
Labels: YES (active), NO (inactive)

1. CCc1c(Br)c(Br)c(Br)c(Br)c1Br = NO
2. Nc1cccc2nc3ccccc3c(N)c12 = NO
3. BrC(Br)Br = NO
4. CCCCCCCCCc1ccc(OP(=O)(Oc2ccccc2)Oc2ccccc2)cc1 = NO
5. COc1cc(-c2ccc(N/N=C3/C(=O)c4c(N)cc(S(=O)(=O)O)cc4C=C3S(=O)(=O)O)c(OC)c2)ccc1N/N=C1/C(=O)c2c(N)cc(S(=O)(=O)O)cc2C=C1S(=O)(=O)O = NO
6. O=C(O)CCC(=O)OC[C@@H](NC(=O)C(Cl)Cl)[C@H](O)c1ccc([N+](=O)[O-])cc1 = NO
7. C=CCOC(=O)c1ccccc1C(=O)OCC=C = NO
8. CCCCOCCOCCO = NO
9. CC(C)CC(=O)CC(C)C = NO
10. O=C(O)C1C(C(=O)O)C2(Cl)C(Cl)=C(Cl)C1(Cl)C2(Cl)Cl (centres undefined) = NO
11. O=C(Cl)c1ccccc1F = NO
12. O=C(NO)c1ccccc1 = NO
13. O=C(OCC1CO1)C1CCCCC1C(=O)OCC1CO1 (centres undefined) = YES
14. C=CC(=O)OCC(C)C = NO

###

# Tested on: CCRIS mutagenicity, Ames/micronucleus/aberration tests
# measurement_description: CCRIS mutagenicity studies
# condition_details: Test System: AMES SALMONELLA TYPHIMURIUM; Strain/Indicator: TA98; Metabolic Activation: NONE; Method: STANDARD PLATE
Activity calls are given as the source filed them. No rule for the calls is given here.
Labels: active, inactive

1) O=C(CO)N(O)c1ccc(Cl)cc1 = inactive
2) COc1ccc([C@@H]2CC(=O)c3c(O)cc(O[C@@H]4O[C@H](CO[C@@H]5O[C@@H](C)[C@H](O)[C@@H](O)[C@H]5O)[C@@H](O)[C@H](O)[C@H]4O)cc3O2)cc1O = inactive
3) Cc1cc2c(C)c3ccccc3c(C)c2cc1C = active
4) Nc1ccc2[nH]c3ccccc3c2c1[N+](=O)[O-] = active
5) CNCCN(Cc1ccc(OC)cc1)c1ccccn1 = inactive
6) c1ccc2c(c1)oc1ccccc12 = inactive
7) CCOP(=O)(OCC)O/C(=C/Br)c1ccc(Cl)cc1Cl = inactive
8) CC(C)=C[C@@H]1[C@@H](C(=O)OCc2coc(Cc3ccccc3)c2)C1(C)C = inactive
9) O=[N+]([O-])c1ccc(Cl)c([N+](=O)[O-])c1 = active
10) O[C@@H]1[C@H]2O[C@H]2c2c(ccc3nc4ccc5ccccc5c4cc23)[C@H]1O = active
11) O=C1NC(c2ccc([N+](=O)[O-])s2)Nc2ccccc21 (stereo not given) = active
12) COP(=S)(OC)Oc1ccc(N=O)c(C)c1 = active
13) O=[N+]([O-])c1ccc2[nH]c3ccc([N+](=O)[O-])cc3c2c1 = active
14) Nc1ccc2c(c1)oc1ccccc12 = active
15) O=[N+]([O-])c1ccc(Oc2c(Cl)cc(Cl)cc2Cl)cc1 = inactive
16) c1scc2c1-c1cscc1C1NC21 (stereo not given) = active
17) Nc1snc2ccc(Cl)cc12 = inactive
18) CC12CCC(CC1)C(C)(C)O2 = inactive
19) CCC12OC1(C(=O)OC)C(=O)OC2C (stereo not given) = inactive
20) O=C(O)CCCc1c[nH]c2ccccc12 = inactive
21) O=Nc1ccccc1-c1ccccc1 = inactive
22) O=C([O-])/C=C/C(=O)[O-].[Fe+2] = inactive
23) C=C(C)C1C=C2C(COC(=O)CCCCCCCCCCCCCCCCC)=CC=C2C(C)=CC1 (stereo not given) = inactive
24) CCCCCC(O)CC(=O)CCC1CCC(O)C(OC)C1 (stereo not given) = inactive
25) O=Cc1ccco1 = inactive
